The measured values listed here are drawn from patent US8288398B2.

Tested on: Colon cancer (C26, murine) cells
Assay: Tumor cell proliferation assay (ATP-lite), C26
Type: cell-based
Details: Mus musculus, 96 h, inhibition of tumor cell growth by 50%, 4 days incubation, ATP-lite readout
Method: Assay 1: Tumor Cell Proliferation Assay: Colon cancer (C26, murine), pancreatic cancer (MiaPaCa-2, human) cells were plated in 96-well white plates (Cat. No. 3917, Corning, Inc.) at 2.5×10^3 cells/well and cultured overnight at 37° C. in 5% CO2 in DMEM containing 10% FCS. […] Cell plates were incubated for an additional 4 days at 37° C. and 5% CO2 and cell proliferation was quantitated using the ATP-lite cell proliferation kit (Cat. No. 6016943, Perkin Elmer). […]
pIC50: −log10 of the molar value.
Quantity name: pIC50

Solved cases below.
COc1ccccc1-c1cc(NN=C(C)c2ccc(N(C)C)cc2)nc(C)n1
> 6.00
CC(=NNc1cc(-c2ccccc2)nc(C)n1)c1ccc(N)cc1
4.82 to 6.00
CC(=NNc1cc(-c2ccccc2)nc(C)n1)c1ccc(Br)cc1
4.82 to 6.00
CC(=NNc1cc(-c2ccccc2)nc(C)n1)c1ccc(NC(N)=S)cc1
4.82 to 6.00
CC(=NNc1cc(-c2ccccc2F)nc(C)n1)c1ccc(C)cc1
> 6.00
CC(=NNc1cc(-c2ccccc2C#N)nc(C)n1)c1ccc(C)cc1
> 6.00
CC(=NNc1cc(-c2ccccc2)nc(C)n1)c1ccc(I)cc1
4.82 to 6.00
CC(=NNc1cc(-c2ccccc2C)nc(C)n1)c1ccc(C)cc1
> 6.00
CC(=NNc1cc(-c2ccccc2)nc(C)n1)c1ccc(Cl)cc1
4.82 to 6.00
COc1nc(NN=C(C)c2ccc(N(C)C)cc2)cc(-c2ccccc2)n1
> 6.00

Looking up COc1ccccc1-c1cc(NN=C(C)c2ccc(C)cc2)ncn1 , I see its pIC50 listed as > 6.00

----------
tested on: Colon cancer (C26, murine) cells; test: Tumor cell proliferation assay (ATP-lite), C26; type: cell-based; details: Mus musculus, 96 h, inhibition of tumor cell growth by 50%, 4 days incubation, ATP-lite readout
The following compounds are shown together with reported IC50 values.

CC(=NN(C)c1nc(C(F)(F)F)nc2ccccc12)c1cccc(C)c1 [Compound 1]
< 1 µM
CC(=NNc1cc(-c2ccccc2)nc(C)n1)c1ccc(C)cc1 [Compound 41]
< 1 µM
CC(=NNc1cc(-c2ccccc2N2CCOCC2)nc(C)n1)c1ccc(C)cc1 [Compound 33]
1 to 15 µM
CC(=NN(C)c1cc(-c2ccccc2)nc(C)n1)c1ccc(C)cc1 [Compound 39]
< 1 µM
CCC(=NNc1cc(-c2ccccc2)nc(C)n1)c1ccc(C)cc1 [Compound 22]
1 to 15 µM

Entry CC(=NNc1cc(-c2ccccc2CO)nc(C)n1)c1ccc(C)cc1 [Compound 35] , IC50 reported as < 1 µM

The measured IC50 associated with CC(=NNc1cc(-c2ccccc2N)nc(C)n1)c1ccc(C)cc1 [Compound 38] reads < 1 µM

----------
test system: Colon cancer (C26, murine) cells; test: Tumor cell proliferation assay (ATP-lite), C26; type: cell-based; details: Mus musculus, 96 h, inhibition of tumor cell growth by 50%, 4 days incubation, ATP-lite readout
# IC50 listing for each entry below

The examples below pair each entry with its known result.
COc1ccccc1-c1cc(NN=C(C)c2ccc(N(C)C)cc2)ncn1
< 1 µM
CC(=NNc1cc(-c2ccccc2F)nc(C)n1)c1ccc(N(C)C)cc1
< 1 µM
CC(=NNc1cc(-c2ccccc2)nc(C)n1)c1ccc(N(C)C)cc1
< 1 µM
CC(=NN(C)c1nc(C(F)(F)F)nc2ccccc12)c1ccc(C)cc1
< 1 µM
CC(=NNc1cc(-c2ccccc2OC(F)(F)F)nc(C)n1)c1ccc(N(C)C)cc1
< 1 µM
CCc1ccc(C(C)=NNc2cc(-c3ccccc3)nc(C)n2)cc1
< 1 µM
COc1ccccc1-c1cc(NN=C(C)c2ccc(C)cc2)nc(C)n1
< 1 µM
COc1ccc(C(C)=NNc2nc(C)nc3ccccc23)cc1
1 to 15 µM

Form field IC50, entry CCc1nc(NN=C(C)c2ccc(N(C)C)cc2)cc(-c2ccccc2OC)n1 : < 1 µM

Entry CC(=O)Nc1ccc(C(C)=NNc2cc(-c3ccccc3)nc(C)n2)cc1 ; IC50 = 1 to 15 µM

Memo: CC(=NNc1cc(-c2ccccc2OC(C)C)nc(C)n1)c1ccc(N(C)C)cc1 , reported IC50: 1 to 15 µM

IC50 measured on CC(=NNc1cc(-c2cccnc2)nc(C)n1)c1ccc(C)cc1 = 1 to 15 µM

Looking up CC(=NNc1cc(-c2ccccc2)nc(C)n1)c1cccc(N)c1 , I found its IC50 recorded as 1 to 15 µM

Field IC50 (entry CCc1nc(NN=C(C)c2ccc(C)cc2)cc(-c2ccccc2OC)n1 ) reads < 1 µM

The compound identified as CC(=NN(C)c1nc(C)nc2ccccc12)c1ccc(C)cc1 registered its IC50 at < 1 µM

Please fill in: IC50 reported for CC(=NNc1cc(-c2ccccc2)nc(C)n1)c1ccc(Cl)c(Cl)c1 = 1 to 15 µM

Memo: CC(=NNc1cc(-c2ccccc2N)nc(C)n1)c1ccc(N(C)C)cc1 , reported IC50: < 1 µM

Query CC(=NNc1nc(C(F)(F)F)nc2ccccc12)c1ccc(C)cc1 yields IC50 of 1 to 15 µM

The value of IC50 measured for the compound CC(=NNc1cc(-c2ccccc2)nc(C)n1)c1ccc(O)cc1 turned out to be 1 to 15 µM
